# Assay Remarks: In vitro NO release test (incubation with L-cysteine, OD at 550 nm)
# Test Settings: 20 min; 100 μM solution with cysteine solution, 37° C.
NO-release concentrations vs 20 µM: at or above is 1.0, below is 0.0.

Q) Answer whether NO-release concentrations of C=C[C@]1(C)CC[C@@H](C(=C)CN2CCCC(COC(=O)CCC(=O)OCC#CCOc3no[n+]([O-])c3S(=O)(=O)c3ccccc3)C2)C[C@H]1C(=C)CCl (some centres unmarked) [Example 19] is greater than or equal to 20 µM.
A) 0.0

Q) And C=C[C@]1(C)CC[C@@H](C(=C)CN(C)CCOC(=O)CCC(=O)OCC#CCOc2no[n+]([O-])c2S(=O)(=O)c2ccccc2)C[C@H]1C(=C)CCl [Example 3] ?
A) 0.0

Q) And C=C[C@]1(C)CC[C@@H](C(=C)CN2CCCC(COC(=O)CCC(=O)OCCOc3no[n+]([O-])c3S(=O)(=O)c3ccccc3)C2)C[C@H]1C(=C)CCl (some centres unmarked) [Example 17] ?
A) 0.0

Q) And C=C[C@]1(C)CC[C@@H](C(=C)CN(C)CCOC(=O)CCCC(=O)OCCOc2no[n+]([O-])c2S(=O)(=O)c2ccccc2)C[C@H]1C(=C)CCl [Example 2] ?
A) 0.0

Q) And C=C[C@]1(C)CC[C@@H](C(=C)CN2CCC(COC(=O)CCCC(=O)OCCOc3no[n+]([O-])c3S(=O)(=O)c3ccccc3)CC2)C[C@H]1C(=C)CCl [Example 14] ?
A) 0.0

Q) And C=C[C@]1(C)CC[C@@H](C(=C)CN2CCN(CCOC(=O)CCC(=O)OCC#CCOc3no[n+]([O-])c3S(=O)(=O)c3ccccc3)CC2)C[C@H]1C(=C)CCl [Example 23] ?
A) 0.0

Q) And C=C[C@]1(C)CC[C@@H](C(=C)CN2CC[C@H](OC(=O)CCC(=O)OCC#CCOc3no[n+]([O-])c3S(=O)(=O)c3ccccc3)C2)C[C@H]1C(=C)CCl [Example 11] ?
A) 0.0

Q) And C=C[C@]1(C)CC[C@@H](C(=C)CN2CCCC(COC(=O)CCCC(=O)OCC#CCOc3no[n+]([O-])c3S(=O)(=O)c3ccccc3)C2)C[C@H]1C(=C)CCl (some centres unmarked) [Example 20] ?
A) 1.0

Q) And C=C[C@]1(C)CC[C@@H](C(=C)CN(CCOC(=O)CCC(=O)OCCOc2no[n+]([O-])c2S(=O)(=O)c2ccccc2)C(C)C)C[C@H]1C(=C)CCl [Example 5] ?
A) 1.0

Q) And C=C[C@]1(C)CC[C@@H](C(=C)CN2CCN(CCOC(=O)CCCC(=O)OCC#CCOc3no[n+]([O-])c3S(=O)(=O)c3ccccc3)CC2)C[C@H]1C(=C)CCl [Example 24] ?
A) 0.0

Q) And C=C[C@]1(C)CC[C@@H](C(=C)CN(C)CCOC(=O)CCC(=O)OCCOc2no[n+]([O-])c2S(=O)(=O)c2ccccc2)C[C@H]1C(=C)CCl [Example 1] ?
A) 0.0

----------
Field: NO-release concentrations. Provide a value for each of the compounds that follow.
# Assay Remarks: In vitro NO release test (incubation with L-cysteine, OD at 550 nm)
# Test Settings: 5 min; 100 μM solution with cysteine solution, 37° C.
The figure you give is taken to be in µM; do not add the unit.

Q) Find the recorded NO-release concentrations belonging to "C=C[C@]1(C)CC[C@@H](C(=C)CN2CCN(CCOC(=O)CCC(=O)OCCOc3no[n+]([O-])c3S(=O)(=O)c3ccccc3)CC2)C[C@H]1C(=C)CCl" and report it.
A) 0.08

Q) And C=C[C@]1(C)CC[C@@H](C(=C)CN2CCCC(COC(=O)CCCC(=O)OCC#CCOc3no[n+]([O-])c3S(=O)(=O)c3ccccc3)C2)C[C@H]1C(=C)CCl (stereo partly drawn) ?
A) 15.19

Q) And "C=C[C@]1(C)CC[C@@H](C(=C)CN2CC[C@H](OC(=O)CCC(=O)OCCOc3no[n+]([O-])c3S(=O)(=O)c3ccccc3)C2)C[C@H]1C(=C)CCl" ?
A) 3.25

Data origin: patent US12624012B2
